target: KRas G12R (Homo sapiens, UniProt P01116, G12R); experiment: biochemical;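 further: TR-FRET displacement assay of compound binding to KRas, read after one hour at room temperature, potency from a four-parameter fit of percent-of-control values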
Sequence (P01116 1-169 isoform P01116-2 G12R): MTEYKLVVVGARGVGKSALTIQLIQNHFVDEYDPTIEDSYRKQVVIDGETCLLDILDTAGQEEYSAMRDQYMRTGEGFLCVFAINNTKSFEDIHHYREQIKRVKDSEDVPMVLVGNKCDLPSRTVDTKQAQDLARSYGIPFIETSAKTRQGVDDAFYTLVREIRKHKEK
pIC50: −log10 of the molar value.
measured-metric: pIC50

P = CCc1cccc2cccc(-c3ncc4c(N5CC6CC(O)C(C6)C5)nc(OCC56CCCN5CCC6)nc4c3F)c12 (stereo not drawn)
Q = C[C@@H]1C[C@@H]1c1c(Cl)cc(O)cc1-c1ncc2c(N3CCCC(C)(O)C3)nc(OCC34CCCN3CCC4)nc2c1F (stereo partly drawn)
R = CCc1cccc2cccc(-c3ncc4c(N5CCCOCC5)nc(OCC56CCCN5CCC6)nc4c3F)c12
Request: Rank the items in ascending order with respect to pIC50. Write out the labels following the order that was asked for.
Result: R, P, Q
(R: 6.13, P: 6.75, Q: 8.22)

---

system: pERK in H460 cells; test: Inhibition of KRas phosphorylation of ERK (Cisbio HTRF pERK assay); conditions: Homo sapiens, NCI-H460, read-out: Inhibition (HTRF IC50) of KRas-mediated Phosphorylation of ERK, H460
pIC50: −log10 of the molar value.
measured-metric: pIC50

compound: C#Cc1c(F)ccc2cc(O)cc(-c3ncc4c(N5CCCC6(CC(=O)N6)C5)nc(OC[C@@]56CCCN5C[C@H](F)C6)nc4c3F)c12 (stereo partly drawn) [Example 148]
assayed-target: pERK in H460 cells
pIC50: 6.88

compound: CCc1c(F)ccc2cc(O)cc(-c3ncc4c(N5CCCCCCC5)nc(OC[C@@]56CCCN5C[C@H](F)C6)nc4c3F)c12 [Example 325]
assayed-target: pERK in H460 cells
pIC50: 7.21

compound: CCc1c(F)ccc2cc(O)cc(-c3ncc4c(N5CCCC(O)CC5)nc(OC[C@@]56CCCN5C[C@H](F)C6)nc4c3F)c12 (stereo in doubt) [Example 346]
assayed-target: pERK in H460 cells
pIC50: 6.78

compound: Oc1cc(-c2ncc3c(N4CCCC5(CC(O)C5)C4)nc(OC[C@@]45CCCN4C[C@H](F)C5)nc3c2F)c2c(Cl)c(F)ccc2c1 (stereo partly drawn) [Example 425]
assayed-target: pERK in H460 cells
pIC50: 7.00

compound: CCc1c(F)ccc2cc(O)cc(-c3ncc4c(N5CCOCC(C)(CO)C5)nc(OC[C@@]56CCCN5C[C@H](F)C6)nc4c3F)c12 (stereo partly drawn) [Example 496]
assayed-target: pERK in H460 cells
pIC50: 6.61

compound: CCc1c(F)ccc2cc(O)cc(-c3ncc4c(N5CCC[C@]6(C5)C[C@H](O)C6)nc(OC[C@@]56CCCN5C[C@H](F)C6)nc4c3F)c12 (single isomer, unassigned) [Example 323]
assayed-target: pERK in H460 cells
pIC50: 7.96

compound: CC1(O)COCCN(c2nc(OC[C@@]34CCCN3C[C@H](F)C4)nc3c(F)c(-c4cc(O)cc5ccc(F)c(Br)c45)ncc23)C1 (stereo partly drawn) [Example 400]
assayed-target: pERK in H460 cells
pIC50: 7.39

compound: CN(C)C(=O)c1cc2n(n1)CCCN(c1nc(OC[C@@]34CCCN3C[C@H](F)C4)nc3c(F)c(-c4cc(O)cc5ccc(F)c(Cl)c45)ncc13)C2 [Example 427]
assayed-target: pERK in H460 cells
pIC50: 6.06

A = C[C@@]1(O)CCCN(c2nc(OC[C@@]34CCCN3C[C@H](F)C4)nc3c(F)c(-c4cc(O)cc5ccc(F)c(F)c45)ncc23)C1 [Example 514]
B = CCc1c(F)ccc2cc(O)cc(-c3ncc4c(N5CCOC[C@@](C)(O)C5)nc(OC[C@@]56CCCN5C[C@H](F)C6)nc4c3F)c12 [Example 200]
Request: Given A and given B , which shows the smaller recorded pIC50? Output the label that corresponds to your choice.
Result: A

I = CCc1c(F)ccc2cc(O)cc(-c3ncc4c(N5CCCC6(CCC(F)(F)C6)C5)nc(OC[C@@]56CCCN5C[C@H](F)C6)nc4c3F)c12 (stereo partly drawn) [Example 509]
II = O=C1NC(=O)C2(CCCN(c3nc(OC[C@@]45CCCN4C[C@H](F)C5)nc4c(F)c(-c5cc(O)cc6ccc(F)c(F)c56)ncc34)C2)N1 (stereo partly drawn) [Example 444]
Request: Of I and II , which one carries the higher reported pIC50? Bench note: the answer is the label of the chosen record.
Result: I
(I: 6.69, II: 5.81)

P = O=C1CC2(CCCN(c3nc(OC[C@@]45CCCN4C[C@H](F)C5)nc4c(F)c(-c5cc(O)cc6ccc(F)c(Br)c56)ncc34)C2)N1 (stereo partly drawn) [Example 405]
Q = CCc1c(F)ccc2cc(O)cc(-c3ncc4c(N5CCCOCC5)nc(OC[C@@]56CCCN5C[C@H](F)C6)nc4c3F)c12 [Example 315]
Request: Please choose the item with the lower pIC50 value from this pair: P and Q Answer with the label corresponding to your selection.
Result: P

1 = CCc1c(F)ccc2cc(O)cc(-c3ncc4c(N5CCCn6nc(C(=O)N7CCOCC7)cc6C5)nc(OC[C@@]56CCCN5C[C@H](F)C6)nc4c3F)c12 [Example 354]
2 = O=S1(=O)NCC2(CCCN(c3nc(OC[C@@]45CCCN4C[C@H](F)C5)nc4c(F)c(-c5cc(O)cc6ccc(F)c(Cl)c56)ncc34)C2)N1 (stereo partly drawn) [Example 417]
3 = CCc1c(F)ccc2cc(O)cc(-c3ncc4c(N5CCC[C@@](C)(O)C5)nc(OC[C@@]56CCCN5[C@@H](COC(=O)N(C)C)CC6)nc4c3F)c12 [Example 512]
Request: Task field, ranking: reported pIC50, descending order. Sort and list the labels as requested.
Result: 2, 3, 1
